assay: solvent given as SMILES; settings: in C1CCOC1
RESULT TYPE: emission maximum (nm)
Field format: number, assumed nm, no unit text.

The examples below pair each entry with its known result.
1. c1ccc(/C(=C(\c2ccccc2)c2cc(-c3ccc(-c4ccccc4)cc3)ccc2-c2ccc(-c3ccccc3)cc2)c2cc(-c3ccc(-c4ccccc4)cc3)ccc2-c2ccc(-c3ccccc3)cc2)cc1 ... 496
2. CC(=O)c1c2c(cc3cc(N(C)C)ccc13)CCC2 ... 505
3. OCCSc1cccc2[n+]1[B-](F)(F)n1c(c3cccc4cccc1c43)=N2 ... 505
4. CC(C)(C)c1ccc(C2=c3sc4ccccc4c3=[N+]3C2=Nc2c(-c4ccc(C(C)(C)C)cc4)c4sc5ccccc5c4n2[B-]3(F)F)cc1 ... 800
5. Cc1cc(C)c(B(c2ccc(N3c4ccccc4C(C)(C)c4ccccc43)cc2)c2c(C)cc(C)cc2C)c(C)c1 ... 530
6. c1ccc2c(c1)[nH]c1cccnc12 ... 352
7. N#Cc1ccc(C=C(c2ccccc2)c2ccccc2)cc1 ... 390
8. NS(=O)(=O)c1ccc(N2N=C(c3ccc(O)cc3)CC2c2ccccc2)cc1 (stereo unspecified) ... 418
9. N#Cc1cc2ccccc2[nH]1 ... 328
10. C(=C\c1ncc2ccccc2n1)/c1ccc(N(c2ccccc2)c2ccccc2)cc1 ... 498

Give the measured emission maximum of CCn1c2ccccc2c2cc(-c3cc(-c4ccc5c(c4)c4ccccc4n5CC)nc(-c4ccccc4)n3)ccc21 . 391

Any idea what its emission maximum is? The compound is COc1cc(/C=C/c2nc3ccccc3o2)c(OC)cc1/C=C/c1nc(C)nc(C)n1 483

Requested read-out: emission maximum. Entry: c1ccc2c(c1)c1ccccc1c1[nH]c(-c3ccc(-c4nc5c6ccccc6c6ccccc6c5[nH]4)cc3)nc21 456

Quick check: emission maximum of CCC1(CC)c2cc(C#Cc3cc(C#Cc4ccc5c(c4)C(CC)(CC)c4cc(N(c6ccccc6)c6ccccc6)ccc4-5)c4ccc5c(C#Cc6ccc7c(c6)C(CC)(CC)c6cc(N(c8ccccc8)c8ccccc8)ccc6-7)cc(C#Cc6ccc7c(c6)C(CC)(CC)c6cc(N(c8ccccc8)c8ccccc8)ccc6-7)c6ccc3c4c65)ccc2-c2ccc(N(c3ccccc3)c3ccccc3)cc21 ? 552

Using the record for COc1ccc(-c2ccc(-c3ccc(OC)cc3)c3nc(-c4ccccc4)c(-c4ccccc4)nc23)cc1 , report its emission maximum. 504

Requested read-out: emission maximum. Entry: COc1cc2c(cc1-c1ccc(C(F)(F)F)cc1)Cc1c3c(c4c(c1-2)-c1cc(OC)c(-c2ccc(C(F)(F)F)cc2)cc1C4)C(=O)N(CCC(C)C)C3=O 458

###

# Lookup of reported emission maximum keyed by entry
assay: solvent given as SMILES; conditions: in ClCCl
Could you give me the number in nm? Just the number is fine.

Example entries and their recorded answers appear below.
1) COc1ccc(-c2cc(-c3ccc(C)cc3)nc3c(C#N)c(N4CCCC4)nc(N)c23)cc1 ... 509
2) O=c1c2ccc(N3CCCCC3)cc2oc2cc(N3CCCCC3)ccc12 ... 407.47
3) COc1ccc(C#Cc2ccc3nc4ccc(C#Cc5ccc(OC)cc5)cn4c(=O)c3c2)cc1 ... 486
4) C(#Cc1ccc2c(c1)c1cc(C#Cc3ccccc3)ccc1n2-c1cc2ccccc2c2ccccc12)c1ccccc1 ... 392
5) Cc1ccc2cc3c(=O)n(C)c(=O)n(C)c3nc2c1 ... 405
6) Oc1cccc(/N=C/c2ccccc2Oc2ccccc2)c1 ... 407
7) c1ccc2c(c1)-c1ccccc1[Si]21c2ccccc2-c2cc3c(cc21)-c1ccccc1[Si]31c2ccccc2-c2ccccc21 ... 408
8) CCCCc1cc2c3c(c1)-c1ccccc1B(c1c(C)cc(C)cc1C)N3B(c1c(C)cc(C)cc1C)c1ccccc1-2 ... 413
9) CCc1cccc(CC)c1-c1c2ccccc2c(C#Cc2ccccc2)c2cc3ccccc3cc12 ... 538
10) COc1cc2c(cc1OC)C1=C[C@H](c3ccc(Cl)cc3)C3(C(C#N)=C(C#N)N1CC2)c1cc(Cl)ccc1-c1ccc(Cl)cc13 ... 406

Field request: emission maximum | item: Cc1cc2ccccc2c2c1c1ccccc1n2C(=O)OC(C)(C)C 355

// emission maximum lookup, key: C1=Cc2nc1c(-c1ccccc1)c1ccc([nH]1)c(-c1ccccc1)c1cc(c(-c3ccccc3)c3ccc([nH]3)c2-c2ccccc2)N=C1 744

Consider the compound c1cncc(-c2ccc(-c3c4ccccc4c(-c4ccc(-c5cccnc5)cc4)c4ccccc34)cc2)c1 and give its measured emission maximum. 426

What emission maximum value was documented for this compound, C[Si]1(C)c2ccccc2-c2ccccc21 ? 359

For the compound shown here, Cc1ccc(C#Cc2ccc3ccc4cccc5ccc2c3c45)cc1 , give the reported emission maximum. 395

###

experiment: solvent given as SMILES; settings: in O
RESULT TYPE: emission maximum (nm)
Just the number please, in nm, no unit attached.

1) COc1cc(N(CC(=O)[O-])CC(=O)[O-])c2ncccc2c1 ... 487
2) c1ccc(-c2nc(-c3c[nH]c4ccccc34)n3ccccc23)cc1 ... 507
3) Cc1cccc2nc3c(=O)[nH]c(=O)[nH]c3nc12 ... 495

Suppose we examine the compound CC[N+]1(CC)CN2C(=N1)C(C(=O)O)=Cc1cc(OC)ccc12 ; what emission maximum value has been reported? 491

###

test: solvent given as SMILES; conditions: in C1CCOC1
RESULT TYPE: emission maximum (nm)
I only need the number, in nm, no unit after it.

1. c1ccc(-c2nc(-c3ccccc3)nc(-c3ccc(-n4c5ccccc5c5c6c(ccc54)-c4ccccc4C6(c4ccccc4)c4ccccc4)cc3)n2)cc1 ... 504.15
2. C1=C(c2ccccc2)C=C(c2ccccc2)/C1=C/c1ccc(-c2cccs2)s1 ... 503
3. CN(C)c1ccc(C2=Nc3sc4cc(C(F)(F)F)ccc4[n+]3[B-](F)(F)O2)cc1 ... 486
4. CN(C)c1ccc(/C=C/c2nc(/C=C/c3ccc(N(c4ccccc4)c4ccccc4)cc3)cc(/C=C/c3ccc(N(c4ccccc4)c4ccccc4)cc3)n2)cc1 ... 512
5. CCC1(CC)c2cc(B(c3c(C)cc(C)cc3C)c3c(C)cc(C)cc3C)ccc2-c2ccc(N(c3ccccc3)c3ccc4c(c3)C(CC)(CC)c3cc(B(c5c(C)cc(C)cc5C)c5c(C)cc(C)cc5C)ccc3-4)cc21 ... 490
6. FC(F)(F)c1ccc(C2=CC3=c4cc(-c5ccc(C(F)(F)F)cc5)c5nc(C(F)(F)C(F)(F)C(F)(F)F)nc6c(-c7ccc(C(F)(F)F)cc7)cc(c4c65)C4=CC(c5ccc(C(F)(F)F)cc5)=C5N=C(C(F)(F)C(F)(F)C(F)(F)F)N=C2C5C43)cc1 (stereo not drawn) ... 512

For C[P+](c1c2ccccc2cc2ccccc12)(c1c2ccccc2cc2ccccc12)c1c2ccccc2cc2ccccc12 , what is its reported emission maximum? 494

Quick check: emission maximum of COc1cc2cc(OC)c(C#Cc3ccc([N+](=O)[O-])cc3)cc2cc1C#Cc1ccc([N+](=O)[O-])cc1 ? 514

###

Listing of entries alongside the reported emission maximum.
assay: solvent given as SMILES; settings: in ClCCl
Only the number, expressed in nm, is required.

Please review the entries below; each comes with its answer.
1) CCCCCCCCCCCCCCCCOc1cc(C#Cc2ccc3ccccc3c2)c(OCCCCCCCCCCCCCCCC)cc1C#Cc1ccc(C=C(C#N)C#N)cc1 ... 618
2) CC(C)(C)c1ccc(-c2nc3c4ccccc4c4ccccc4c3n2-c2ccc(-c3ccc(N(c4ccccc4)c4ccccc4)cc3)cc2)cc1 ... 426

emission maximum lookup needed for CCN1c2ccc(/C=N/Nc3ccccn3)cc2Sc2cc(-c3ccccc3)ccc21 , thanks. 497
